Target under test: 72 kDa type IV collagenase (Homo sapiens)
Sequence (P08253 whole entry, the tested form may be a part): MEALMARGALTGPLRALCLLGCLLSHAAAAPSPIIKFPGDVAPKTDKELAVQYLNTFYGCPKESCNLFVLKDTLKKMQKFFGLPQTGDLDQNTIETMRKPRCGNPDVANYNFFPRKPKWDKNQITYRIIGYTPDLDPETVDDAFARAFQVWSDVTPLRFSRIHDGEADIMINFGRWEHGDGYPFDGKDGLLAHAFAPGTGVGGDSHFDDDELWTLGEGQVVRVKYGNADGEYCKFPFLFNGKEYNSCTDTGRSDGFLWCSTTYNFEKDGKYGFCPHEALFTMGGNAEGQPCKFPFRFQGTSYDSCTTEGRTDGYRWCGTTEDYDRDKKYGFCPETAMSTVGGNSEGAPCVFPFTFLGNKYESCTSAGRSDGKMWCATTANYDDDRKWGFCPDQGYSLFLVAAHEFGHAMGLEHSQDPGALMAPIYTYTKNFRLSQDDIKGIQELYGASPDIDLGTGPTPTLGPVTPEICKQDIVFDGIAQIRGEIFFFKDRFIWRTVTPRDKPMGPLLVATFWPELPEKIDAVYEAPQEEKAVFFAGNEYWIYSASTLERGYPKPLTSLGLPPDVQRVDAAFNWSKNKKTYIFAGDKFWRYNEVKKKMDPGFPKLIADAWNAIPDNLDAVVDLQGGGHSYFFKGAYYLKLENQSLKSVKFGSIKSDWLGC
Protocol details: Inhibition of recombinant human MMP2 catalytic domain (Tyr110 to Asp452 residues) expressed in yeast cells using Mca-Pro-Leu-Gly-Leu-Dpa-Ala-Arg-NH2/TQ3-GABA-Pro-Cha-Abu-Smc-His-Ala-Dab(6'-TAMRA)-Ala-Lys-NH2 as fluorogenic substrate preincubated for 15 mins followed by substrate addition measured after 2 to 4 hrs by fluorometric analysis
Assay readout: IC50 (µM)
Numbers only, in µM.

Completed entries (count: 5):
O=C(Nc1ccc(-c2nc3ccc(Br)cc3[nH]2)cc1)c1ccccc1 6.42
O=C(CCCc1ccccc1)Nc1cccc(-c2nc3ccccc3[nH]2)c1 47
O=C(CCc1ccccc1)Nc1cccc(-c2nc3ccc(Br)cc3[nH]2)c1 16
O=[N+]([O-])c1ccc(-c2nc3ccc(Br)cc3[nH]2)cc1 8.8
O=C(CCc1ccccc1)Nc1cccc(-c2nc3ccccc3[nH]2)c1 87

Kindly give each listed record's IC50.
1. Cc1ccc2nc(-c3ccc(NC(=O)c4ccc([N+](=O)[O-])cc4)cc3)[nH]c2c1
2. Cc1ccc2nc(-c3cccc(NC(=O)CCc4ccccc4)c3)[nH]c2c1
3. O=C(O)c1ccc(-c2nc3ccc(Br)cc3[nH]2)cc1

[3.3, 31, 31.5]

* * *

Target under test: Collagenase 3 (Homo sapiens, UniProt P45452)
Protocol details: Inhibition of recombinant human MMP13 catalytic domain (Tyr104 to Asn274 residues) expressed in Escherichia coli cells using Mca-Pro-Leu-Gly-Leu-Dpa-Ala-Arg-NH2/TQ3-GABA-Pro-Cha-Abu-Smc-His-Ala-Dab(6'-TAMRA)-Ala-Lys-NH2 as fluorogenic substrate preincubated for 15 mins followed by substrate addition measured after 2 to 4 hrs by fluorometric assay
pIC50: −log10 of the molar value.
Response key: true means pIC50 >= 5; false means pIC50 < 5.

O=[N+]([O-])c1ccc(-c2nc3ccccc3[nH]2)o1 false
O=C(CCc1ccccc1)Nc1cccc(-c2nc3ccccc3[nH]2)c1 false
Cc1ccc2nc(-c3ccc([N+](=O)[O-])cc3)[nH]c2c1 true
Nc1ccc(-c2nc3ccc(Br)cc3[nH]2)cc1 false
Cc1ccc2nc(-c3cccc(NC(=O)CCc4ccccc4)c3)[nH]c2c1 false

Could you please find out whether COc1ccc(/C=C/C(=O)Nc2cccc(-c3nc4ccccc4[nH]3)c2)cc1 has pIC50 that meets 5 or exceeds it?
false

* * *

Target under test: Neutrophil collagenase (Homo sapiens, UniProt P22894)
Sequence (P22894 whole entry, the tested form may be a part): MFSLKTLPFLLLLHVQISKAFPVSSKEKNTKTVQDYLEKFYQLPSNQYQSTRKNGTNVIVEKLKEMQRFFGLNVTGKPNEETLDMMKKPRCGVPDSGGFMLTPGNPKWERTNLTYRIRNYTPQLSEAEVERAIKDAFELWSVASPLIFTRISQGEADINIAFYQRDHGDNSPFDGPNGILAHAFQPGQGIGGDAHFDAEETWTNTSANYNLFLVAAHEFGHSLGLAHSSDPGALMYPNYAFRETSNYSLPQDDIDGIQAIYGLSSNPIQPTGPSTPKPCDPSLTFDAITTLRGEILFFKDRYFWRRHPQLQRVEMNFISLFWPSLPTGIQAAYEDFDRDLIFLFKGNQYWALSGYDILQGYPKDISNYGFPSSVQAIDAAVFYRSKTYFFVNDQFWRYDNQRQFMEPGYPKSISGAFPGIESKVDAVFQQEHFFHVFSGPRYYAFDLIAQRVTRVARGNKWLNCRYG
Protocol details: Inhibition of recombinant human MMP8 catalytic domain (Phe99 to Gln269 residues) expressed in Escherichia coli cells using Mca-Pro-Leu-Gly-Leu-Dpa-Ala-Arg-NH2/TQ3-GABA-Pro-Cha-Abu-Smc-His-Ala-Dab(6'-TAMRA)-Ala-Lys-NH2 as fluorogenic substrate preincubated for 15 mins followed by substrate addition measured after 2 to 4 hrs by fluorometric assay
Assay readout: IC50 (µM)
Give bare numbers, in µM.

O=C(Nc1ccc(-c2nc3ccc(Br)cc3[nH]2)cc1)c1ccc([N+](=O)[O-])cc1 7.9
O=C(CCCc1ccccc1)Nc1cccc(-c2nc3ccccc3[nH]2)c1 34.6
O=C(Nc1ccc(-c2nc3ccccc3s2)cc1)c1ccccc1 38
Cc1ccc2nc(-c3ccc([N+](=O)[O-])cc3)[nH]c2c1 23
O=C(CCc1ccccc1)Nc1ccc(-c2nc3ccccc3[nH]2)cc1 64
Cc1ccc2nc(-c3ccc([N+](=O)[O-])cc3)oc2c1 29
O=C(O)c1ccc(-c2nc3ccc(Br)cc3[nH]2)cc1 35
O=[N+]([O-])c1ccc(-c2nc3ccccc3s2)cc1 10.5
O=C(Nc1ccc(-c2nc3ccc(Br)cc3[nH]2)cc1)c1ccccc1 50
O=S(=O)(Nc1cccc(-c2nc3ccccc3[nH]2)c1)c1ccccc1 43.2

Below: the item to evaluate.
Please give measured IC50 of the following entry: Cc1ccc2oc(-c3ccc([N+](=O)[O-])cc3)nc2c1
16.4
